assay: self-splicing fitness, log relative to wild type (ln ratio); higher = more splicing; Tetrahymena group I intron in knt gene, E. coli kanamycin selection, DiMSum; sequences stand for … in CUCUCU…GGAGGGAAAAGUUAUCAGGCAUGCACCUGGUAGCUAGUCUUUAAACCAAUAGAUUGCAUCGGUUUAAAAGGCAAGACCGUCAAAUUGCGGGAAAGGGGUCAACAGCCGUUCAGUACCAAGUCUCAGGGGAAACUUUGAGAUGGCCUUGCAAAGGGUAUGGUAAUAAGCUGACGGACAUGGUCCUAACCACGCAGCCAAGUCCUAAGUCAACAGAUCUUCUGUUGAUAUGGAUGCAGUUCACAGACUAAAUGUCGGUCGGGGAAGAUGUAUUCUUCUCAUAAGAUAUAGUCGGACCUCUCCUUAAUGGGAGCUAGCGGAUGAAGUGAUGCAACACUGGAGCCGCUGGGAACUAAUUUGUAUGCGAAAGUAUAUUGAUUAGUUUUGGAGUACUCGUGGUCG; details: 30 °C;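 note: selection with 25 µg/mL kanamycin versus none on LB agar overnight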
Entry class follows self-splicing fitness (ln): low (below -3), medium (-3 to below -2), high (-2 or more)

Past entries and their recorded results:
> print(dat)
         sequence.entry  category.label
1  AUAGAGCAAUAUUACGCUAC          medium
2  UUCAAGCAAUAUUACGUAGU             low
3  UUCUAGCAAUAUUACGGGGC             low
4  GGUUAGCAAUAUUACGGACA            high

Assign a category based on measured self-splicing fitness (ln) for UUCAAGCAAUAUUACGUGCU and give only the class name.
low

Lab note: which band did CCAAAGCAAUAUUACGGAUG land in?
high

Into which category would you place UAGCAGCAAUAUUACGGCGC ?
medium

Tag the class for CGGGAGCAAUAUUACGUCGG
medium

* * *

self-splicing fitness (ln): recorded values
experiment: self-splicing fitness, log relative to wild type (ln ratio); higher = more splicing; Tetrahymena group I intron in knt gene, E. coli kanamycin selection, DiMSum; sequences stand for … in CUCUCU…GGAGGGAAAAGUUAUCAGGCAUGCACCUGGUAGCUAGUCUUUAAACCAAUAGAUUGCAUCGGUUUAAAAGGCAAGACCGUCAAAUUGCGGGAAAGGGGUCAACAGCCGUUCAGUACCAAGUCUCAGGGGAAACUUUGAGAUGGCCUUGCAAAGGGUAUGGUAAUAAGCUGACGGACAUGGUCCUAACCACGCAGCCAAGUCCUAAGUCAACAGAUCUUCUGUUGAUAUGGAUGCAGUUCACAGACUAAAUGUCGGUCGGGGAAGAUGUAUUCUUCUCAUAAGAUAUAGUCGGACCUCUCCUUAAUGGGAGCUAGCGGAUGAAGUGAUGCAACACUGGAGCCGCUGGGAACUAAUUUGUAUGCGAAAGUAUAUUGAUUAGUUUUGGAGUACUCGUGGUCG; conditions: 30 °C

> print(dat)
         sequence.entry  result
1  ACUUAGCAAUAUUACGAUCA   -1.45
2  CGGAAGCAAUAUUACGUGGG   -3.23
3  CUGAAGCAAUAUUACGUGAC   -1.24
4  UUGCAGCAAUAUUACGUGAA   -1.12
5  CCCUAGCAAUAUUACGUUAU   -4.33
6  GGGCAGCAAUAUUACGCCUG   -1.27

# lookup: self-splicing fitness (ln) of GCGUAGCAAUAUUACGCCAG
-3.15

Which self-splicing fitness (ln) reading was recorded for the sequence AACUAGCAAUAUUACGUUUU ?
-3.52

Record request: self-splicing fitness (ln) value, item CUGCAGCAAUAUUACGCACA
-2.82

// self-splicing fitness (ln) lookup, key: CCCCAGCAAUAUUACGUUCA
-2.97

Quick one: self-splicing fitness (ln) for AGUAAGCAAUAUUACGGAUC ?
-1.39

Tell me the measured self-splicing fitness (ln) of AUUGAGCAAUAUUACGGGGG , please.
-4.39

Which measured self-splicing fitness (ln) value corresponds to CCUGAGCAAUAUUACGAGAU ?
-1.86

Name the reported self-splicing fitness (ln) value associated with the sequence ACCGAGCAAUAUUACGGUAU
-3.76

Which self-splicing fitness (ln) reading was recorded for the sequence AAGAAGCAAUAUUACGCGCG ?
-0.562

Fill in: self-splicing fitness (ln) of UCCAAGCAAUAUUACGUUAG is ___
-1.97

What value of self-splicing fitness (ln) has been recorded for this entry: UAAAAGCAAUAUUACGAUAA
-0.739

Would you kindly share the measured self-splicing fitness (ln) for GACAAGCAAUAUUACGUGCU ?
-2.93

Given the sequence GUGUAGCAAUAUUACGGCGU , what is its reported self-splicing fitness (ln)?
-1.42

Would you kindly share the measured self-splicing fitness (ln) for ACCAAGCAAUAUUACGCGUG ?
-2.41

Value lookup for self-splicing fitness (ln); key = GUUAAGCAAUAUUACGUGUC
-2.09

Returns the measured self-splicing fitness (ln) for the input sequence. Input: GGACAGCAAUAUUACGGACG
-0.636
